- experimental system: KRas-mediated phosphorylation of ERK in H358 cells (Homo sapiens, UniProt P01116, G12C)
- Construct: pERK HTRF read-out
- Sequence (P01116 1-188 isoform P01116-2 G12C): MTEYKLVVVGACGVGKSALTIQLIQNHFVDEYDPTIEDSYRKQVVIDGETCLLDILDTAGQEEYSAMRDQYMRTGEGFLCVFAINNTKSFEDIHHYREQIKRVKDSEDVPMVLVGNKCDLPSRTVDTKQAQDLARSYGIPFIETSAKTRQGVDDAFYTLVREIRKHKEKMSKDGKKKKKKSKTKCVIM
- method: Inhibition of KRas-mediated phosphorylation of ERK (HTRF), H358 cells
- Format: cell-based
- assay setup: HTRF pERK, 3 h incubation

compound | IC50 [nM]
CCc1c(F)ccc2cc(O)cc(-c3ncc4c(N5C[C@@H]6C[C@H](C(=O)n7ccc(C)n7)[C@@H]6C5)nc(OC[C@@]56CCCN5C[C@H](F)C6)nc4c3F)c12 [Example 211] | 518
Cc1ccn(C(=O)CCN(C)c2nc(OC[C@@]34CCCN3C[C@H](F)C4)nc3c(F)c(-c4ccc(F)c5sc(N)c(C#N)c45)c(Cl)cc23)n1 [Example 176] | 295
CCc1c(F)ccc2cc(O)cc(-c3ncc4c(N(C)CCN(C)C(=O)n5nccn5)nc(OC[C@@]56CCCN5C[C@H](F)C6)nc4c3F)c12 (single isomer, unassigned) [Example 207] | 34
CON(C(C)=O)C(=O)CCCN(C)c1nc(OC[C@@]23CCCN2C[C@H](F)C3)nc2c(F)c(-c3ccc(F)c4sc(N)c(C#N)c34)c(Cl)cc12 [Example 234] | 7
Cc1ccn(C(=O)C2CCCN(c3nc(OC[C@@]45CCCN4C[C@H](F)C5)nc4c(F)c(-c5ccc(F)c6sc(N)c(C#N)c56)c(Cl)cc34)C2)n1 (some centres unmarked) [Example 132] | 1200
Cc1ccn(C(=O)[C@H]2CCCN(c3nc(OC[C@@]45CCCN4C[C@H](F)C5)nc4c(F)c(-c5ccc(F)c6sc(N)c(C#N)c56)c(Cl)cc34)CC2)n1 (atropisomer, axis not shown; (aS)) [Example 170] | 3
CN(C(=O)CCCN(C)c1nc(OC[C@@]23CCCN2C[C@H](F)C3)nc2c(F)c(-c3ccc(F)c4sc(N)c(C#N)c34)c(Cl)cc12)C(=O)c1ccn(C)n1 [Example 292] | 30
CCc1c(F)ccc2cc(O)cc(-c3ncc4c(N5CCOCC(C(=O)n6ccc(C)n6)C5)nc(OC[C@@]56CCCN5C[C@H](F)C6)nc4c3F)c12 (some centres unmarked) [Example 77] | 1360
CCc1c(F)ccc2cc(O)cc(-c3ncc4c(N5CCCCCC(C(=O)n6ccc(C)n6)C5)nc(OC[C@@]56CCCN5C[C@H](F)C6)nc4c3F)c12 (some centres unmarked) [Example 55] | 90
Cc1ccn(C(=O)CC2CN(c3nc(OC[C@@]45CCCN4C[C@H](F)C5)nc4c(F)c(-c5ccc(F)c6sc(N)c(C#N)c56)c(Cl)cc34)C2)n1 [Example 138] | 157
Cc1ccn(C(=O)CCCN(C)c2cc(O[C@@H](C)[C@@H]3CCCN3C)nc(-c3noc([C@@]4(C)CCCc5sc(N)c(C#N)c54)n3)n2)n1 [Example 322] | 9590
